All figures here come from BindingDB's records for doi:10.1016/j.bmcl.2012.03.007.

assay: Antagonist activity at CCR2 in human PBMC assessed as inhibition of MCP1-induced chemotaxis
The following molecules are listed with their measured pIC50 values.
Please note pIC50 is a logarithmic value: minus log10 of concentration in mol/L. Answer with that number alone.

In: What value of measured pIC50 is listed for CCC[C@H](O)[C@H](CNCc1ccc(C)cc1C)NC(=O)CC(=O)Nc1cc(N)cc(C(F)(F)F)c1 ?
Out: 7.85

In: Also need CCC[C@H](O)[C@H](CNCc1ccc(C)cc1C)NC(=O)CNC(=O)c1cc(C(F)(F)F)ccc1NC(C)C , thanks.
Out: 8.05

In: Also need CCC[C@H](O)[C@H](CNCc1ccc(C)cc1C)NC(=O)CNC(=O)c1cc(C(F)(F)F)ccc1NC(=O)N1CCNCC1 , thanks.
Out: 8.00

In: Also need CCC[C@H](O)[C@H](CNCc1ccc(C)cc1C)NC(=O)CNC(=O)c1cc(C(F)(F)F)ccc1NCc1ccccc1 , thanks.
Out: 8.14

In: Also need CCC[C@H](O)[C@H](CNCc1ccc(C)cc1C)NC(=O)CNC(=O)c1cc(C(F)(F)F)ccc1NC(=O)N1CCOCC1 , thanks.
Out: 7.89

In: Also need CCC[C@H](O)[C@H](CNCc1ccc(C)cc1C)NC(=O)CNC(=O)c1cc(C(F)(F)F)ccc1NC(=O)OC(C)(C)C , thanks.
Out: 7.77
